FYI, the data here is from ChEMBL document CHEMBL1201862.

// reported GI50 for each item listed
system: Malme-3M; experiment: NCI tumour cell line growth inhibition, 48 h
The source made the active and inactive calls. No stated cut-off is given here; in the data, active = GI50 up to about 1.1 µM and inactive = higher.
ENDPOINT: GI50

- COMPOUND: "CCN(CC)CC(C(=O)Nc1c(C)cccc1C)/C(C)=N\\NC(=S)NN (stereo unspecified)"
  RESULT: "> 100 µM (inactive)"
- COMPOUND: "O=C1CSC2=NC3=C(CSC/C3=C\\c3ccccc3)C(c3ccccc3)N12 (stereo unspecified)"
  RESULT: "> 100 µM (inactive)"
- COMPOUND: "O/N=C(\\c1nc2ccc(Cl)cc2nc1O)C(O)c1ccc(Cl)cc1Cl (stereo unspecified)"
  RESULT: "> 100 µM (inactive)"
- COMPOUND: "CC(C)(C)c1ccc(Oc2ccc(C#N)c(C#N)c2)c(C(C)(C)C)c1"
  RESULT: "> 100 µM (inactive)"
- COMPOUND: "COc1ccc(/N=N/c2c(-c3c(OC)cc4occc4c3OC)[nH]c(=O)c(C#N)c2C)cc1"
  RESULT: "55 µM (inactive)"
- COMPOUND: "Oc1cccc2cc(Br)cnc12"
  RESULT: "7.96 µM (inactive)"

----------
Consider the following molecules and their measured GI50 readings.
system: RPMI-8226; experiment: NCI tumour cell line growth inhibition, 48 h
Active and inactive are the calls of the source. No stated cut-off is given here; in the data, active = GI50 up to about 1.1 µM and inactive = higher.

- MOLECULE: "COC1=C2C=[N+](C)C3C(=C2C=CC1OC)Cc1cc2c(cc13)OCO2 (stereo unspecified)"
  GI50: "2.53 µM (inactive)"
- MOLECULE: "CCOC(=O)/C(=C\\NC(C)(C)C)c1nc2ccccc2[nH]1"
  GI50: "17.2 µM (inactive)"
- MOLECULE: "CC(=O)OC1COC(N2C(=O)C(=O)c3cc(Br)c([N+](=O)[O-])cc32)C(OC(C)=O)C1OC(C)=O (stereo unspecified)"
  GI50: "> 100 µM (inactive)"
- MOLECULE: "O=C(N/N=C\\c1ccc(Cl)cc1)Nc1ccc2ccccc2c1"
  GI50: "70.8 µM (inactive)"
- MOLECULE: "O=C1CCNC/C1=C\\c1ccccc1"
  GI50: "24 µM (inactive)"
- MOLECULE: "CC(CCC(=O)O)(c1cc(Br)c(O)c(Br)c1)c1cc(Br)c(O)c(Br)c1"
  GI50: "48.8 µM (inactive)"
- MOLECULE: "CN(C)CCNC(=O)c1cc([N+](=O)[O-])ccn1"
  GI50: "45.1 µM (inactive)"
- MOLECULE: "CCCCCC/C=C\\CCCCCCCCC(=O)c1cccc(OC)c1OC"
  GI50: "34 µM (inactive)"
- MOLECULE: "CC(=O)N(CCN1C(=O)c2ccccc2C1=O)CCN1C(=O)c2ccccc2C1=O"
  GI50: "> 100 µM (inactive)"
- MOLECULE: "Cc1cc2c(=O)cc(-c3ccc(C(=O)O)cc3)oc2c(C(N)=O)c1C"
  GI50: "> 100 µM (inactive)"
- MOLECULE: "C/C(CC(=O)Nc1ccc(Cl)c(Cl)c1)=N/NC(=O)C[n+]1ccccc1"
  GI50: "32.3 µM (inactive)"

----------
system: DMS-114; experiment: NCI tumour cell line growth inhibition, 48 h
Activity calls are given as the source filed them. Cut-off read from the data, not from the text of the source: active = GI50 up to about 1.1 µM and inactive = higher.
ENDPOINT: GI50

- COMPOUND: "CC(C)(C)C1CCP(=O)(c2ccccc2)CC1 (stereo not given)"
  RESULT: "> 100 µM (inactive)"
- COMPOUND: "CC1CN1c1c(C(=O)/C=C/c2ccccc2)c(-c2ccccc2)nn(C)c1=O (stereo not given)"
  RESULT: "23 µM (inactive)"
- COMPOUND: "Clc1cc2nc[nH]c2cc1Cl"
  RESULT: "> 100 µM (inactive)"
- COMPOUND: "COc1ccc(/C=[N+](\\[O-])[C@H](COCc2ccccc2)c2ccccc2)cc1"
  RESULT: "> 100 µM (inactive)"
- COMPOUND: "CCCN(CCC)C1CC(n2cc(C)c(=O)[nH]c2=O)OC1CO (stereo not given)"
  RESULT: "> 100 µM (inactive)"
- COMPOUND: "N#CCc1nc2c(s1)C(=O)c1ccccc1C2=O"
  RESULT: "6.24 µM (inactive)"
- COMPOUND: "CC1CC(=O)Nc2ccc(Cl)cc2N1C(=O)CN1CCC(CCCCN(C)C)CC1 (stereo not given)"
  RESULT: "> 100 µM (inactive)"
- COMPOUND: "COc1cc(C2C(C(=O)Nc3cc(F)c(F)cc3F)=C(C)NC(C)=C2C(=O)Nc2cc(F)c(F)cc2F)ccc1O"
  RESULT: "14 µM (inactive)"
- COMPOUND: "Cc1ccc(Cl)c(NC(=O)C(=O)C(C(=O)c2ccncc2)C2OC(=O)c3ccccc32)c1 (stereo not given)"
  RESULT: "> 100 µM (inactive)"
- COMPOUND: "COc1cc2c(cc1O)[C@H](Cc1ccc(Oc3cc(C[C@H]4c5cc(OC)c(OC)cc5CCN4C)ccc3OC)cc1)NCC2"
  RESULT: "18.7 µM (inactive)"

----------
tested on: UACC-257; assay: NCI tumour cell line growth inhibition, 48 h
Activity calls are given as the source filed them. No stated cut-off is given here; in the data, active = GI50 up to about 1.1 µM and inactive = higher.
Labels: true (active), false (inactive)

- COMPOUND: "CC1(C)COC(C2(C)C(=O)C=C(c3ccccc3)c3ccccc32)=N1 (stereo unspecified)"
  ASSIGNED CLASS: "false"
- COMPOUND: "O=C1CCNC/C1=C\\c1ccccc1"
  ASSIGNED CLASS: "false"
- COMPOUND: "CCOc1ccc2c(c1)c(=O)c1c(NCCN(CC)CC)ccc3nnn2c31"
  ASSIGNED CLASS: "false"
- COMPOUND: "O=C1NC(Cc2ccccc2)C(=O)N2CCCC12 (stereo unspecified)"
  ASSIGNED CLASS: "false"
- COMPOUND: "CN1[C@@H]2CCCC[C@H]2N(C)P1(=O)C(O)/C=C/c1ccccc1 (stereo partly specified)"
  ASSIGNED CLASS: "false"
- COMPOUND: "N#C/C(=C\\c1ccc(Br)cc1)c1nc(-c2cc3ccccc3oc2=O)cs1"
  ASSIGNED CLASS: "false"
- COMPOUND: "CC(=O)OCC12C(OC(C)=O)C[C@@H](C)C3(CC(c4ccoc4)OC3=O)C1CCC(OC(C)=O)C21CO1 (stereo partly specified)"
  ASSIGNED CLASS: "false"
- COMPOUND: "COc1ccc(/C=N/n2c(-c3ccccc3)n[nH]c2=O)cc1"
  ASSIGNED CLASS: "false"
- COMPOUND: "CC1(C)N=C(N)N=C(N)N1c1ccc(Cl)cc1"
  ASSIGNED CLASS: "false"
- COMPOUND: "CC(C(=O)[O-])S(=O)(=O)O.CCc1c2cc(OC)c(OC)cc2cc2c3cc(OC)c(OC)cc3cc[n+]12"
  ASSIGNED CLASS: "false"
- COMPOUND: "CCOC(=O)C(=O)Nc1nc2ccc(OC)cc2s1"
  ASSIGNED CLASS: "false"
- COMPOUND: "CC1(C)CCc2c(cc3c(c2O)CCC(C)(C)O3)O1"
  ASSIGNED CLASS: "false"
- COMPOUND: "Nc1ccn(C=C=CCO)c(=O)n1"
  ASSIGNED CLASS: "false"
- COMPOUND: "Cc1ccc(O)c(Cc2nc3ccccc3nc2-c2cccc(Cl)c2)c1"
  ASSIGNED CLASS: "false"
- COMPOUND: "COC(=O)C(CC=O)C(=O)C(=O)Nc1cccc(C(F)(F)F)c1 (stereo unspecified)"
  ASSIGNED CLASS: "false"
- COMPOUND: "CC(C)(C)c1ccc(Oc2ccc(C#N)c(C#N)c2)c(C(C)(C)C)c1"
  ASSIGNED CLASS: "false"
- COMPOUND: "Cc1ccc(C(=O)NC(C)(C)C)cc1/N=N/N(C)C"
  ASSIGNED CLASS: "false"
- COMPOUND: "Cc1ccc(N2C(=O)CC(=O)N(NC(=O)C(C)Oc3ccccc3C)C2=S)cc1 (stereo unspecified)"
  ASSIGNED CLASS: "false"
- COMPOUND: "N#Cc1c(NC(=S)Nc2ccc(Cl)cc2)sc2c1CCN(N1CCc3c(sc(NC(=S)Nc4ccc(Cl)cc4)c3C#N)C1)C2"
  ASSIGNED CLASS: "false"
- COMPOUND: "CC(CCC(=O)O)(c1cc(Br)c(O)c(Br)c1)c1cc(Br)c(O)c(Br)c1"
  ASSIGNED CLASS: "false"
- COMPOUND: "COc1ccc2[nH]c3c(C)c4ccnc(NCCCN(C)CCCN)c4c(C)c3c2c1"
  ASSIGNED CLASS: "true"
- COMPOUND: "CC(=O)Nc1ccc(/C=C/C(=O)N2CC(CCl)c3c2cc(N)c2ccccc32)cc1 (stereo unspecified)"
  ASSIGNED CLASS: "true"
- COMPOUND: "COC(=O)C1CC(OC(C)=O)C=C2C(=O)CCC21 (stereo unspecified)"
  ASSIGNED CLASS: "false"
- COMPOUND: "Clc1ncc(C(Cl)(Cl)Cl)nc1-c1ccccc1"
  ASSIGNED CLASS: "false"
- COMPOUND: "CC(=O)O/C(=C(/C#N)C(=O)O)C1C(C(=O)O)C(c2ccccc2[N+](=O)[O-])C=C(c2ccco2)N1c1ccncc1 (stereo unspecified)"
  ASSIGNED CLASS: "false"
- COMPOUND: "Cc1ccc(C)c(NC(=O)C(Cc2c[nH]c3ccccc23)NC(=O)OCc2ccccc2)c1 (stereo unspecified)"
  ASSIGNED CLASS: "false"
- COMPOUND: "CC1CC(=O)Nc2ccc(Cl)cc2N1C(=O)CN1CCC(CCCCN(C)C)CC1 (stereo unspecified)"
  ASSIGNED CLASS: "false"
- COMPOUND: "CC(C)OP(=O)(OC(C)C)/C(Cl)=N/Nc1ccc([N+](=O)[O-])cc1"
  ASSIGNED CLASS: "false"
- COMPOUND: "CC(=O)OC1COC(N2C(=O)C(=O)c3cc(Br)c([N+](=O)[O-])cc32)C(OC(C)=O)C1OC(C)=O (stereo unspecified)"
  ASSIGNED CLASS: "false"
- COMPOUND: "COC1(c2cccs2)c2ccccc2C(OC)(c2cccs2)c2ccccc21 (stereo unspecified)"
  ASSIGNED CLASS: "false"
- COMPOUND: "NS(=O)(=O)c1ccc(NCc2nc3ccccc3[nH]2)cc1"
  ASSIGNED CLASS: "false"
- COMPOUND: "c1ccc(CC(Nc2cccnc2)c2ccccc2)cc1 (stereo unspecified)"
  ASSIGNED CLASS: "false"
- COMPOUND: "CC1CCC2(C(=O)O)CCC3(C)C(=CCC4C5(C)CC(O)C(O)C(C)(CO)C5C(O)CC43C)C2C1C (stereo unspecified)"
  ASSIGNED CLASS: "false"
- COMPOUND: "CC1NC(C(=O)O)Cc2cc(O)c(O)cc21 (stereo unspecified)"
  ASSIGNED CLASS: "false"
- COMPOUND: "COc1cc(C2c3[nH]c4ccccc4c3[C@@H](Nc3ccc(F)cc3)[C@H]3COC(=O)N23)cc(OC)c1O (stereo partly specified)"
  ASSIGNED CLASS: "false"
- COMPOUND: "Cn1c2ccccc2c2ccc3c(c21)C(=O)C=CC3=O"
  ASSIGNED CLASS: "false"
- COMPOUND: "CC(C)=CC(=O)O[C@@H]1CC(C)(C)CC2C3=CCC4[C@]56CC[C@](O)(OC5)C(C)(C)C6CC[C@@]4(C)C3(C)CC[C@]21C(=O)O (stereo partly specified)"
  ASSIGNED CLASS: "false"
- COMPOUND: "C/C(=C\\c1ccc(Cl)cc1)C(C)(C)C(=O)O"
  ASSIGNED CLASS: "false"
- COMPOUND: "O=C1C2C(C(=O)N1OS(=O)(=O)c1ccccc1)N(Cc1ccccc1)C(=O)N2Cc1ccccc1 (stereo unspecified)"
  ASSIGNED CLASS: "false"
- COMPOUND: "COC(=O)[C@@H]1c2cc3c(c(O)c2[C@@H](OC)C[C@@]1(C)O)C(=O)c1c(O)cc2c(c1C3=O)OC1O[C@@]2(C)[C@H](O)[C@@H](N(C)C)[C@@H]1O"
  ASSIGNED CLASS: "true"
- COMPOUND: "CCC(=O)N1C(=O)OCC1C(C)C (stereo unspecified)"
  ASSIGNED CLASS: "false"
